Hello, the source for this data is patent US20040186273A1, in case you need it.

# binding of prion to resin (prion signal in flow through) measurements, system: prion from scrapie infected hamster brain (PrPsc) (Mesocricetus auratus, UniProt P04273)
# Sequence (P04273 23-231 limits assumed): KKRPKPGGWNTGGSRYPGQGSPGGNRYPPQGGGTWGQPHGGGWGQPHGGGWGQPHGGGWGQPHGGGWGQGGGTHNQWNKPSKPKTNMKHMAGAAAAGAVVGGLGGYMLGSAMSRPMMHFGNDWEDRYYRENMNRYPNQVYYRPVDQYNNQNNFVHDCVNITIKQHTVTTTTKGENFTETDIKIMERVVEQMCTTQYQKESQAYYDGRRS
MEASURED PARAMETER: binding of prion to resin (prion signal in flow through)

SUBSTANCE: YVFNWY [Peptide 87]
MEASURED ON: prion from scrapie infected hamster brain (PrPsc) (Mesocricetus auratus, UniProt P04273)
RESULT: bound all prion
--
SUBSTANCE: RYHVYF [Peptide 71]
MEASURED ON: prion from scrapie infected hamster brain (PrPsc) (Mesocricetus auratus, UniProt P04273)
RESULT: bound all prion
--
SUBSTANCE: GFFFWW [Peptide 89]
MEASURED ON: prion from scrapie infected hamster brain (PrPsc) (Mesocricetus auratus, UniProt P04273)
RESULT: bound all prion
